assayed-system: recombinant human HLA-E*0103 (Homo sapiens, UniProt P13747)
Construct: made in house; host or cells: E. coli
assay: biochemical
Type: binding
condition-context: concentration of peptide reducing fluorescence of standard peptide VMAPC(Fl)TLLL (100 fmol) by 50%; […]; gel filtration HPLC, emission 528 nm; at least two separate experiments; read-out: Binding
pIC50: −log10 of the molar value. Where no end group is shown, it is not given here.
Would you mind labelling by pIC50? At or over 5 is rule met, under is rule not met.

substance: DMLGRAGGL-OH [Peptide 12]
label: rule not met
//
substance: EMVLRADQL-OH [Peptide 11]
label: rule not met
//
substance: LMGALAVVL [Peptide 26]
label: rule not met
//
substance: GMGMVGTAL-OH [Peptide 35, GMGMVGTAL]
label: rule not met
//
substance: AMAGSIDLL [Peptide 36]
label: rule not met
//
substance: GLDSRAYRL-OH [Peptide 18]
label: rule not met
//
substance: GLDARAYRL-OH [Peptide 19]
label: rule not met
//
substance: RSCPRLTIL-OH [Peptide 64]
label: rule not met
//
substance: EMGRAPLDL-OH [Peptide 43]
label: rule not met
//
substance: PMAPLAPLL [Peptide 20]
label: rule met
//
substance: VLRPGGHFL [Peptide 68]
label: rule met
//
substance: VMAPDAVRI [Peptide 63]
label: rule not met
//
substance: QLAPGLQLI-OH [Peptide 46]
label: rule not met
//
substance: TMITFRLRL [Peptide 33]
label: rule met
//
substance: RLGRLLNRI-OH [Peptide 56]
label: rule not met
//
substance: DLPSRLGKI-OH [Peptide 58]
label: rule not met
//
substance: VMTTVLATL [Peptide 34]
label: rule met
//
substance: PMKRTALAL [Peptide 6, PMKRTALAL]
label: rule not met
//
substance: LMGAEADAL-OH [Peptide 17, LMGAEADAL]
label: rule not met
//
substance: KMNAKAATL [Peptide 4]
label: rule not met
//
substance: VMATRRNVL [Peptide 55]
label: rule not met
//
substance: RLRPELAGL [Peptide 52]
label: rule not met
//
substance: VEAFRTRPL-OH [Peptide 16]
label: rule not met
//
substance: FLLPRGLAI-OH [Peptide 54]
label: rule not met
//
substance: PMADIAAAL-OH [Peptide 23, PMADIAAAL]
label: rule not met
//
substance: RLANLLPLI [Peptide 48]
label: rule not met
//
substance: SMAGRAGQL-OH [Peptide 2]
label: rule not met
//
substance: SMADRAENL-OH [Peptide 1]
label: rule not met
//
substance: RMAATAQVL [Peptide 14]
label: rule met
//
substance: TSADRAVVL [Peptide 28]
label: rule not met
//
substance: FLAADALVL-OH [Peptide 15]
label: rule not met
